# target_or_test_system: α-glucosidase
# procedure_text: SPR (Biacore 8K, CM5 chip, immobilized enzyme); also p-NPG inhibition (IC50 […], Ki […], non-competitive, reversible) and CD
reported_endpoint: Kd (µM)

Oc1cc(-c2ccccc2)cc(O)c1O [THB, 3,4,5-Trihydroxybiphenyl] :: 39.1
